- experimental-system: melittin (Apis mellifera)
- experimental-protocol: cell-based
- conditions: read-out: IC50, inhibition of melittin (converted)
observed-property: IC50

Solved cases (2 shown):
INSERT INTO assay_data (substance, observed_property, observed_result) VALUES
  ('Ac-IVILTK-NH2 [Ac-IVILTK-NH2]', 'IC50', '> 344 µM'),
  ('Ac-IVILLC-NH2 [Ac-IVILLC-NH2]', 'IC50', '> 350 µM');

From here, focus on the item given below.
Problem: Lab note: need IC50 for Ac-IVILTR-NH2 [Ac-IVILTR-NH2] on melittin (Apis mellifera), anyone have it?
Solution: > 331 µM

----------
- System: Human red blood cells (RBCs)
- experimental-protocol: Hemolytic activity
- Type: cell-based
- conditions: Tables 18-21
- Protocol: Each assay was carried out in 96-well culture tissue plates. Four wells per plate contain 125 μl of a non-peptide positive control (1% Triton in de-ionized water), and four wells per plate contain 125 μl of a control blank, phosphate buffered saline (PBS). The hemolytic peptide melittin was used as comparative control. […] The release of hemoglobin resulting from the cell lysis was determined by measuring the OD at 414 nm of 100 μl of the supernatant.
Square brackets hold non-standard residues; d marks the D form. Peptide text beside a SMILES is read from it. * marks the point of attachment. Phe(4-NO2) = N[C@@H](Cc1ccc([N+](=O)[O-])cc1)C(=O)O; Fmoc = O=C(OCC1c2ccccc2-c2ccccc21)*; Nle = CCCC[C@H](N)C(=O)O; Aib = CC(C)(N)C(=O)O
observed-property: HD50 (concentration necessary to lyse 50% of the cells) (µg/mL)
Please give a number only; it is taken to be in µg/mL.

INSERT INTO measurements (molecule, experimental_system, observed_result) VALUES
  ('CC[C@@H](C)[C@@H](NC(=O)[C@@H](CS)NC(=O)[C@H](CCCCN)NC(=O)OCC1c2ccccc2-c2ccccc21)C(=O)N[C@@H](Cc1ccc([N+](=O)[O-])cc1)C(N)=O [(KFmoc)ci(NO2 F)-NH2] (Fmoc-K[dC][dI][Phe(4-NO2)]-NH2)', 'Human red blood cells (RBCs)', 363),
  ('CCCC[C@H](NC(=O)[C@H](CCCCN)NC(=O)[C@H](Cc1c[nH]c2ccccc12)NC(=O)[C@H](CCCCN)NC(=O)OCC1c2ccccc2-c2ccccc21)C(N)=O [(KFmoc)WK(Nle)-NH2] (Fmoc-KWK[Nle]-NH2)', 'Human red blood cells (RBCs)', 91),
  ('NCCCC[C@H](NC(=O)OCC1c2ccccc2-c2ccccc21)C(=O)N[C@@H](Cc1c[nH]c2ccccc12)C(=O)N[C@@H](CCCCN)C(=O)N[C@@H](Cc1c[nH]cn1)C(N)=O [(KFmoc)WKH-NH2] (Fmoc-KWKH-NH2)', 'Human red blood cells (RBCs)', 312),
  ('CSCC[C@H](NC(=O)[C@H](CCCCN)NC(=O)[C@H](Cc1c[nH]c2ccccc12)NC(=O)[C@H](CCCCN)NC(=O)OCC1c2ccccc2-c2ccccc21)C(N)=O [(KFmoc)WKM-NH2] (Fmoc-KWKM-NH2)', 'Human red blood cells (RBCs)', 102),
  ('CC(C)[C@@H](NC(=O)[C@H](CCCCN)NC(=O)[C@H](Cc1c[nH]c2ccccc12)NC(=O)[C@H](CCCCN)NC(=O)OCC1c2ccccc2-c2ccccc21)C(N)=O [(KFmoc)WKv-NH2] (Fmoc-KWK[dV]-NH2)', 'Human red blood cells (RBCs)', 181),
  ('CC(C)(NC(=O)[C@H](CCCCN)NC(=O)[C@H](Cc1c[nH]c2ccccc12)NC(=O)[C@H](CCCCN)NC(=O)OCC1c2ccccc2-c2ccccc21)C(N)=O [(KFmoc)WK(aAIB)-NH2] (Fmoc-KWK[Aib]-NH2)', 'Human red blood cells (RBCs)', 447);

From here, focus on the item given below.
Problem: Form field: reported HD50 (concentration necessary to lyse 50% of the cells) of CSCC[C@@H](NC(=O)[C@H](CCCCN)NC(=O)[C@H](Cc1c[nH]c2ccccc12)NC(=O)[C@H](CCCCN)NC(=O)OCC1c2ccccc2-c2ccccc21)C(N)=O [(KFmoc)WKm-NH2] (Fmoc-KWK[dM]-NH2)
Solution: 178

----------
- experimental-system: melittin (Apis mellifera, UniProt P01501)
- Sequence (P01501 44-69 limits assumed): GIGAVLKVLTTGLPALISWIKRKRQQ
- experimental-protocol: cell-based
- conditions: read-out: IC50, inhibition of melittin (converted)
Ends that are not written are not given here.
observed-property: IC50 (µM)
Please give a number only; it is taken to be in µM.

Solved cases (6 shown):
INSERT INTO results (substance, observed_property, observed_result) VALUES
  ('Ac-IVILTC-NH2 [Ac-IVILTC-NH2]', 'IC50', 27.1),
  ('NEEIVF-NH2 [NEEIVF-NH2]', 'IC50', 1210),
  ('Ac-FDIYFE-NH2 [Ac-FDIYFE-NH2]', 'IC50', 1050),
  ('Ac-IIIWFE-NH2 [Ac-IIIWFE-NH2]', 'IC50', 6.27),
  ('Ac-IVILTF-NH2 [Ac-IVILTF-NH2]', 'IC50', 13.4),
  ('Ac-FIIWFK-NH2 [Ac-FIIWFK-NH2]', 'IC50', 1450);

Problem: Form field: reported IC50 of Ac-IVIFFE-NH2 [Ac-IVIFFE-NH2]
Solution: 17.3

Problem: Form field: reported IC50 of Ac-WIQIFI-NH2 [Ac-WIQIFI-NH2]
Solution: 25.6

Problem: Form field: reported IC50 of Ac-IQIYCK-NH2 [Ac-IQIYCK-NH2]
Solution: 1310

Problem: Form field: reported IC50 of Ac-FIIWFE-NH2 [Ac-FIIWFE-NH2]
Solution: 6.03

----------
- experimental-system: melittin (Apis mellifera)
- experimental-protocol: cell-based
- conditions: read-out: IC50, inhibition of melittin (converted)
observed-property: log10 IC50 (log10 of the value in µM)
The base-10 logarithm of IC50, taken with IC50 in µM, is what appears here.

INSERT INTO measurements (substance, observed_result) VALUES
  ('Ac-IVIFFA-NH2 [Ac-IVIFFA-NH2]', 1.52);

Problem: Form field: reported log10 IC50 of Ac-IVILLI-NH2 [Ac-IVILLI-NH2]
Solution: 1.56

Problem: Form field: reported log10 IC50 of Ac-IDIYFK-NH2 [Ac-IDIYFK-NH2]
Solution: 2.96

Problem: Form field: reported log10 IC50 of Ac-FDIWFK-NH2 [Ac-FDIWFK-NH2]
Solution: 2.11

Problem: Form field: reported log10 IC50 of Ac-FQIYFE-NH2 [Ac-FQIYFE-NH2]
Solution: 1.33

Problem: Form field: reported log10 IC50 of Ac-IVILTA-NH2 [Ac-IVILTA-NH2]
Solution: 1.29

Problem: Form field: reported log10 IC50 of Ac-IQIYCE-NH2 [Ac-IQIYCE-NH2]
Solution: 0.77

Problem: Form field: reported log10 IC50 of Ac-IVILTS-NH2 [Ac-IVILTS-NH2]
Solution: 1.72

Problem: Form field: reported log10 IC50 of Ac-IIIYFE-NH2 [Ac-IIIYFE-NH2]
Solution: 0.77

Problem: Form field: reported log10 IC50 of Ac-IVIFFM-NH2 [Ac-IVIFFM-NH2]
Solution: 1.41

Problem: Form field: reported log10 IC50 of Ac-IDIWCK-NH2 [Ac-IDIWCK-NH2]
Solution: 2.11

----------
Form field: HD50 (concentration necessary to lyse 50% of the cells) (one value per entry).
- System: Human red blood cells (RBCs)
- experimental-protocol: Hemolytic activity
- Format: cell-based
- conditions: Tables 18-21
Square brackets hold non-standard residues; d marks the D form. Peptide text beside a SMILES is read from it. * marks the point of attachment. Fmoc = O=C(OCC1c2ccccc2-c2ccccc21)*; Abu = CC[C@H](N)C(=O)O; βAla = NCCC(=O)O
Note to self: number, then unit, no commentary.

Solved cases (6 shown):
INSERT INTO results (compound, experimental_system, observed_result) VALUES
  ('CC[C@@H](C)[C@@H](NC(=O)[C@@H](CS)NC(=O)[C@H](CCCCN)NC(=O)OCC1c2ccccc2-c2ccccc21)C(=O)N[C@@H](C)C(N)=O [(KFmoc)ciA-NH2] (Fmoc-K[dC][dI]A-NH2)', 'Human red blood cells (RBCs)', '68 µg/mL'),
  ('CC[C@@H](C)[C@@H](NC(=O)[C@@H](CS)NC(=O)[C@H](CCCCN)NC(=O)OCC1c2ccccc2-c2ccccc21)C(=O)NCCC(N)=O [(KFmoc)ci(Bala)-NH2] (Fmoc-K[dC][dI][βAla]-NH2)', 'Human red blood cells (RBCs)', '37 µg/mL'),
  ('NCCCC[C@H](NC(=O)OCC1c2ccccc2-c2ccccc21)C(=O)N[C@@H](Cc1c[nH]c2ccccc12)C(=O)N[C@H](Cc1ccccc1)C(=O)N1CCC[C@@H]1C(N)=O [(KFmoc)Wfp-NH2] (Fmoc-KW[dF][dP]-NH2)', 'Human red blood cells (RBCs)', '65 µg/mL'),
  ('C[C@H](NC(=O)[C@H](CCCCN)NC(=O)[C@H](Cc1c[nH]c2ccccc12)NC(=O)[C@H](CCCCN)NC(=O)OCC1c2ccccc2-c2ccccc21)C(N)=O [(KFmoc)WKA-NH2] (Fmoc-KWKA-NH2)', 'Human red blood cells (RBCs)', '378 µg/mL'),
  ('NCCCC[C@H](NC(=O)OCC1c2ccccc2-c2ccccc21)C(=O)N[C@@H](Cc1c[nH]c2ccccc12)C(=O)N[C@@H](CCCCN)C(=O)N[C@@H](Cc1c[nH]c2ccccc12)C(N)=O [(KFmoc)WKW-NH2] (Fmoc-KWKW-NH2)', 'Human red blood cells (RBCs)', '37 µg/mL'),
  ('C[C@@H](O)[C@H](NC(=O)[C@H](CCCCN)NC(=O)[C@H](Cc1c[nH]c2ccccc12)NC(=O)[C@H](CCCCN)NC(=O)OCC1c2ccccc2-c2ccccc21)C(N)=O [(KFmoc)WKT-NH2] (Fmoc-KWKT-NH2)', 'Human red blood cells (RBCs)', '367 µg/mL');

Problem: Form field: reported HD50 (concentration necessary to lyse 50% of the cells) of CC[C@@H](C)[C@@H](NC(=O)[C@H](CCCCN)NC(=O)[C@H](Cc1c[nH]c2ccccc12)NC(=O)[C@H](CCCCN)NC(=O)OCC1c2ccccc2-c2ccccc21)C(N)=O [(KFmoc)WKi-NH2] (Fmoc-KWK[dI]-NH2)
Solution: 296 µg/mL

Problem: Form field: reported HD50 (concentration necessary to lyse 50% of the cells) of NCCCC[C@H](NC(=O)OCC1c2ccccc2-c2ccccc21)C(=O)N[C@@H](Cc1c[nH]c2ccccc12)C(=O)N[C@@H](Cc1ccc(O)cc1)C(=O)NCC(N)=O [(KFmoc)WYG-NH2] (Fmoc-KWYG-NH2)
Solution: 376 µg/mL

Problem: Form field: reported HD50 (concentration necessary to lyse 50% of the cells) of CC[C@H](NC(=O)[C@H](CCCCN)NC(=O)[C@H](Cc1c[nH]c2ccccc12)NC(=O)[C@H](CCCCN)NC(=O)OCC1c2ccccc2-c2ccccc21)C(N)=O [(KFmoc)WK(aABA)-NH2] (Fmoc-KWK[Abu]-NH2)
Solution: 449 µg/mL

Reference source: patent US5440016A
